Attribution: paper PMC7610887

- target_of_assay: hGluA3i AMPAR (Homo sapiens)
- Sequence (P42263 29-894 isoform P42263-2 limits assumed): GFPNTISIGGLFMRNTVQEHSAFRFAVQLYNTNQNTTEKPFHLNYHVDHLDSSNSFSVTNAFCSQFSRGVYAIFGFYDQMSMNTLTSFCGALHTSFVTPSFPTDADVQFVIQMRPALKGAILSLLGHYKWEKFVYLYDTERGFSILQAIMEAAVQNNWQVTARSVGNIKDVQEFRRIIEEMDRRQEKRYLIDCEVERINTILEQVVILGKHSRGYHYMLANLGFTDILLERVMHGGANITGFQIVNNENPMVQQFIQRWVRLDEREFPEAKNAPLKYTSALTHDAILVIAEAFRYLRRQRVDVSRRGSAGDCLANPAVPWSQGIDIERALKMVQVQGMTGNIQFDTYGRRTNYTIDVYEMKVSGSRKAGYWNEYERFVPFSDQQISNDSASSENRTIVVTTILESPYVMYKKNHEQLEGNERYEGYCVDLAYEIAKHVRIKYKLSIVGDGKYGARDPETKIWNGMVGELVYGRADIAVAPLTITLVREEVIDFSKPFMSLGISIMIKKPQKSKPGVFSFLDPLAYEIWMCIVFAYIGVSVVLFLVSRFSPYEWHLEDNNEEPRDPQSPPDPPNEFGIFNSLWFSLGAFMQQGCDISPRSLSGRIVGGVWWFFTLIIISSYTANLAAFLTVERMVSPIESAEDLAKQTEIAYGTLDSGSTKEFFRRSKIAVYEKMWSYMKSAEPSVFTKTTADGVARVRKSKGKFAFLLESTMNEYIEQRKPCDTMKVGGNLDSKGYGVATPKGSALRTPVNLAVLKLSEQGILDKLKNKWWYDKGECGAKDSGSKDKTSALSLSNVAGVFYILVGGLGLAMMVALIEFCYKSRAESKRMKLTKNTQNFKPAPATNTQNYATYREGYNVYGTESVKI
- method_description: Intracellular Ca2+ influx assay
recorded_metric: pEC50
Schema: pEC50 number; meaning minus log10 of the concentration expressed in molar units.

## Input Record request: pEC50 value, item O=C(c1ccc(-n2nc(C(F)(F)F)c3c2CCCC3)cc1)N1CCCC1
## Output 4.50

###

- target_of_assay: rat GluA2i AMPAR (Rattus norvegicus, UniProt P19491)
- Sequence (P19491 22-883 isoform P19491-2 limits assumed): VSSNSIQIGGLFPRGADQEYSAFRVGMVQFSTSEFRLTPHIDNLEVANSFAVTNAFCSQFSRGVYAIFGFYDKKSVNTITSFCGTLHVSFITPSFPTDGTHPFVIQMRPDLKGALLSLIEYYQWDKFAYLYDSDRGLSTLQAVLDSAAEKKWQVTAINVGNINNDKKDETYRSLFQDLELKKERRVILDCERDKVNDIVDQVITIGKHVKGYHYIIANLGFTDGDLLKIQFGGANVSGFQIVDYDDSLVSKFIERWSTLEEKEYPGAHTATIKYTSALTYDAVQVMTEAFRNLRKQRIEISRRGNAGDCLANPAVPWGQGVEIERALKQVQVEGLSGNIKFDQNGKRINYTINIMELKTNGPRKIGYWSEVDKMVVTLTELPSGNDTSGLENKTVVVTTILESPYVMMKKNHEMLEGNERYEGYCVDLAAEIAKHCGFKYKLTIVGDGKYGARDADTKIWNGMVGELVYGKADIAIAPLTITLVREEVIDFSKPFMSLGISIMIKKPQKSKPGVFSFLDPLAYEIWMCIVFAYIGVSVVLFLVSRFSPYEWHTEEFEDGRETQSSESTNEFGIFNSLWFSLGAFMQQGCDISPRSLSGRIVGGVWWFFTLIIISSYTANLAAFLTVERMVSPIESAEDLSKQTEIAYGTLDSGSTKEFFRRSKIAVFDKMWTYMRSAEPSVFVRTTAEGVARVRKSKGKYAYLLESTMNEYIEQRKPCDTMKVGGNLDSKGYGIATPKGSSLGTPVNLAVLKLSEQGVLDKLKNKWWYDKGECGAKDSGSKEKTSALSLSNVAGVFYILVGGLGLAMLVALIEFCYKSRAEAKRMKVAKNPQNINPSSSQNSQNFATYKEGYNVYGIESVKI
- method_description: Intracellular Ca2+ influx assay
recorded_metric: pEC50
Schema: pEC50 number; meaning minus log10 of the concentration expressed in molar units.

## Input Record request: pEC50 value, item O=C(c1ccc(-n2nc(C(F)(F)F)c3c2CCCC3)cc1)N1CCCC1
## Output 5.40

###

- target_of_assay: hGluA4i AMPAR (Homo sapiens, UniProt P48058)
- Sequence (P48058 21-902): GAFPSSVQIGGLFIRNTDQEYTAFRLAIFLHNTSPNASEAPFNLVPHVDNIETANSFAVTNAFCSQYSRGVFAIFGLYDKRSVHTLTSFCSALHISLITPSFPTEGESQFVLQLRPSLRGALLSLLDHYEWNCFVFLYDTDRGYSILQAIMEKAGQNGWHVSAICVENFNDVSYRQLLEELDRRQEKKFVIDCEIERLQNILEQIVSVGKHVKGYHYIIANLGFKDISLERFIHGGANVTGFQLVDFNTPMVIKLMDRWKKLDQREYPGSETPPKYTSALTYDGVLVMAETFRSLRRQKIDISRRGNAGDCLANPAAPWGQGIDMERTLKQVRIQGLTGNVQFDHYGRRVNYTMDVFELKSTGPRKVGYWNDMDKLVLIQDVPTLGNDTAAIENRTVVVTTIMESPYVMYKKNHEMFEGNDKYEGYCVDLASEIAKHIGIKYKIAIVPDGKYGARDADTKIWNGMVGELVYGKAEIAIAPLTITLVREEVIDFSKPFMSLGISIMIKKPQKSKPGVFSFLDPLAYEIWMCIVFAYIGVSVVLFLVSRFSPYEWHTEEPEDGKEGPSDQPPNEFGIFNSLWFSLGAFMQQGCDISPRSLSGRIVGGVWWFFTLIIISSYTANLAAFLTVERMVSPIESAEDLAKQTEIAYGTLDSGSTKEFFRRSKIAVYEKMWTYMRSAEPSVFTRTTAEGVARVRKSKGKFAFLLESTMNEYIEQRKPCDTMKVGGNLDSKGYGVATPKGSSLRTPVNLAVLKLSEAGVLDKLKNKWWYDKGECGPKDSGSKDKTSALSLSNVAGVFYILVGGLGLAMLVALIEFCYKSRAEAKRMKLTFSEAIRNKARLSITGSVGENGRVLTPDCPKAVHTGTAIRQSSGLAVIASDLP
- method_description: Intracellular Ca2+ influx assay
recorded_metric: EC50 (µM)
Number only, in µM; omit the unit.

## Input Record request: EC50 value, item O=C(c1ccc(-n2nc(C(F)(F)F)c3c2CCCC3)cc1)N1CCCC1
## Output 7.94

###

- method_description: Novel object recognition
- run_conditions: rat, in vivo, 0.1 mg/kg, mean blood level, 0.1 mg/kg p.o. sub-chronic
recorded_metric: concentration at 30 min
Dear colleague, please send the value followed by its unit.

## Input Record request: concentration at 30 min value, item O=C(c1ccc(-n2nc(C(F)(F)F)c3c2CCCC3)cc1)N1CCCC1
## Output 7 ng/mL

###

- method_description: 7-day dose-range finding study, rat
- Format: in vivo
- run_conditions: rat, plasma, po, 1600 mg/kg
recorded_metric: Cmax

## Input Record request: Cmax value, item O=C(c1ccc(-n2nc(C(F)(F)F)c3c2CCCC3)cc1)N1CCCC1
## Output ~15000 ng/mL

###

- target_of_assay: hGluA2i AMPAR (Homo sapiens)
- Sequence (P42262 25-883 isoform P42262-2 limits assumed): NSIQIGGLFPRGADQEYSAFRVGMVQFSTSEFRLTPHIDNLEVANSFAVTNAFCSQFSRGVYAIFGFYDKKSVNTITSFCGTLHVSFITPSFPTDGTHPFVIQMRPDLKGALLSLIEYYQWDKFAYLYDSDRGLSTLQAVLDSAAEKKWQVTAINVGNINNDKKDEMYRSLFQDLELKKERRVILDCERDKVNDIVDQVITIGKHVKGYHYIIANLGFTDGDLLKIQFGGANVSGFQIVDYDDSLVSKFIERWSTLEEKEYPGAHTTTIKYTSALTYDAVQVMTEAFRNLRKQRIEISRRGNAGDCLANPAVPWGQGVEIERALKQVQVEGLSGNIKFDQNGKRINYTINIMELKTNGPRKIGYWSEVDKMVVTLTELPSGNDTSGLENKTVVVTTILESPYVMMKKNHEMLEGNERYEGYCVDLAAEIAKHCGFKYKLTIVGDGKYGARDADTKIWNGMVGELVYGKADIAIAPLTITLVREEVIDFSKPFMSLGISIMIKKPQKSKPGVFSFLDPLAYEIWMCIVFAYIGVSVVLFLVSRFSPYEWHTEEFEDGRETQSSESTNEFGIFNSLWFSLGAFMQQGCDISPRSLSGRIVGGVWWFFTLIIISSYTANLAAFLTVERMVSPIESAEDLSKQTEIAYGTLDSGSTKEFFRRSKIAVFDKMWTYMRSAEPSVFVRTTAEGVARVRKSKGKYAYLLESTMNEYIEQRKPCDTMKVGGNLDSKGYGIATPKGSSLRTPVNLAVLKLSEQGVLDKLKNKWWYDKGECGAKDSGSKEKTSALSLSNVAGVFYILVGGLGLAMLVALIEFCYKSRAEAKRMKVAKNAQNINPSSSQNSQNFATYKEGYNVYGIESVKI
- method_description: Intracellular Ca2+ influx assay
recorded_metric: EC50 (µM)
Number only, in µM; omit the unit.

## Input Record request: EC50 value, item O=C(c1ccc(-n2nc(C(F)(F)F)c3c2CCCC3)cc1)N1CCCC1
## Output 5

###

- method_description: In vivo electrophysiology, dentate gyrus population spike
- Design: species or system rat
- run_conditions: male, Lister hooded, rat, brain, iv
recorded_metric: concentration at 20 min (ng/g)
Number only, in ng/g; omit the unit.

## Input Record request: concentration at 20 min value, item O=C(c1ccc(-n2nc(C(F)(F)F)c3c2CCCC3)cc1)N1CCCC1
## Output 11600

###

- method_description: Novel object recognition
- run_conditions: rat, in vivo, 0.1 mg/kg, mean brain level, 0.1 mg/kg p.o. sub-chronic
recorded_metric: concentration at 30 min (ng/g)
Number only, in ng/g; omit the unit.

## Input Record request: concentration at 30 min value, item O=C(c1ccc(-n2nc(C(F)(F)F)c3c2CCCC3)cc1)N1CCCC1
## Output 9
